System: UACC-257 melanoma
Assay: NCI-60 one-dose screen, 48 h (100 = growth as untreated, 0 = no growth, -100 = all killed)
Settings: 10 µM unless noted
Compounds without any hit were thinned out: in the full panel of roughly 83,000, 20% have a hit.
growth under 80% gets YES, anything at or over 80% gets NO.

MOLECULE | CLASS_ASSIGNMENT
CC(C)(C)OC(=O)N1CCN(c2ccc(N)cc2)C(=O)C1 | NO
CN1CCN(c2cnc(C(=O)Nc3cc(F)cc4cccnc34)cn2)CC1 | YES
O=S(=O)(NCCNc1nccc(-c2c(-c3cccc(F)c3)nc3occn23)n1)c1cccc2ccccc12 | YES
ClCC1(Cn2cnc3c(Cl)nc(Cl)nc32)COC1 | YES
Cc1ccc(-c2c(Br)c(OC(=O)CO[C@@H]3C[C@H](C)CC[C@H]3C(C)C)c(-c3ccc(C)cc3C)c(Br)c2OC(=O)CO[C@H]2C[C@@H](C)CC[C@@H]2C(C)C)c(C)c1 | NO

----------
System: 786-0 renal
Assay: NCI-60 one-dose screen, 48 h (100 = growth as untreated, 0 = no growth, -100 = all killed)
Details: 10 µM unless noted
The panel holds about 83,000 compounds, 20% with a hit somewhere; the sample as a whole holds those more often. Active and inactive are the calls of the source. Rule for the calls: active = growth percent below 10; inactive = the rest.
OBSERVABLE: growth

COMPOUND | OBSERVABLE | ASSAY_VALUE
O=C(Nc1nc2ccc(S(=O)(=O)Nc3ccc(C4(C(F)(F)F)CC4)cc3)cc2[nH]1)c1cnccn1 | growth | 33.9% (inactive)
Cc1nc2sc(C(=O)Nc3cccc(Br)c3)c(N)c2cc1C(=O)c1ccc(C(F)(F)F)cc1 | growth | 86.4% (inactive)
C#Cc1cccc(NC(=O)Nc2cccc(N=C=S)c2)c1 | growth | 95.4% [8.25 µM] (inactive)
CC(=O)O[C@H]1CC[C@@]2(C)[C@@H](CC[C@@H]3[C@@H]2CC[C@@]2(C)[C@H]3CC[C@]2(O)C(C)=O)C1 | growth | 98.1% (inactive)
CC(=O)c1cccc(NS(=O)(=O)c2cccc(C(=O)Nc3ccc(Br)cc3)c2)c1 | growth | 56.2% [25 µM] (inactive)
Cc1ccc(C2CC(c3cccc(Nc4ccncc4)c3)=NN2c2cc(Cl)cc(Cl)c2)cc1 (centres undefined) | growth | 51% (inactive)
COc1ccc(C2=NN(C(C)=O)C(c3cn(Cc4ccc(Cl)cc4)c4ccccc34)C2)cc1 (centres undefined) | growth | 89.4% (inactive)
O=C(O)CCCCCCCCCCCCCCC(=O)O | growth | 102% (inactive)
COc1cc(C2CC(c3cccc(Nc4ccncc4)c3)=NN2c2ccccc2)cc(OC)c1OC (centres undefined) | growth | 69.1% (inactive)

----------
In this section, each of the compounds is paired with its reported growth.
System: MDA-MB-231 breast
Assay: NCI-60 one-dose screen, 48 h (100 = growth as untreated, 0 = no growth, -100 = all killed)
Settings: 10 µM unless noted
About 83,000 compounds went through this panel and 20% of them were active in at least one assay; those are over-represented in the sample as a whole. The source made the active and inactive calls. Rule for the calls: active = growth percent below 10; inactive = the rest.
OBSERVABLE: growth

COMPOUND | ASSAY_VALUE
COc1ccc(Cn2nc(-c3cc(OC)c(OC)c(OC)c3)c3c2CCc2cnoc2-3)cc1OC | 52.7% (inactive)
CCN(CC)CCCCCCNc1cc(OC)cc2cccnc12 | 32.6% (inactive)
COc1cc(C2NC(c3cc(OC)c(OC)c(OC)c3)C(C#N)(C#N)C2(C#N)C#N)cc(OC)c1OC (centres undefined) | 97.3% (inactive)
CCC(C)N(CCNc1cc(OC)cc2cccnc12)CCC(C)C (centres undefined) | 84.5% (inactive)
N#Cc1cc(-c2nc3ccccc3s2)c(=O)n(NS(=O)(=O)c2ccc(Cl)cc2)c1N | 87.2% (inactive)
COc1cc(C2CC(c3cccc(Nc4ccncc4)c3)=NN2C(C)=O)cc(OC)c1OC (centres undefined) | 92.8% (inactive)
COc1ccc(C2CC(c3cccc(Nc4ccncc4)c3)=NN2c2ccc(Cl)cc2)cc1 (centres undefined) | 40.6% (inactive)
Nc1c(C(=O)Nc2ccc(Cl)cc2)cc(-c2nc3ccccc3s2)c(=O)n1NS(=O)(=O)c1ccc(Cl)cc1 | 94.1% (inactive)
Clc1cc(Cl)cc(N2N=C(c3cccc(Nc4ccncc4)c3)CC2c2ccc3c(c2)OCO3)c1 (centres undefined) | 33.1% (inactive)
